FYI, the data here is from ChEMBL document CHEMBL1135955.

system: Integrin alpha-V/beta-3 (Homo sapiens, UniProt P05106+P06756)
Sequence (P05106 27-788 limits assumed): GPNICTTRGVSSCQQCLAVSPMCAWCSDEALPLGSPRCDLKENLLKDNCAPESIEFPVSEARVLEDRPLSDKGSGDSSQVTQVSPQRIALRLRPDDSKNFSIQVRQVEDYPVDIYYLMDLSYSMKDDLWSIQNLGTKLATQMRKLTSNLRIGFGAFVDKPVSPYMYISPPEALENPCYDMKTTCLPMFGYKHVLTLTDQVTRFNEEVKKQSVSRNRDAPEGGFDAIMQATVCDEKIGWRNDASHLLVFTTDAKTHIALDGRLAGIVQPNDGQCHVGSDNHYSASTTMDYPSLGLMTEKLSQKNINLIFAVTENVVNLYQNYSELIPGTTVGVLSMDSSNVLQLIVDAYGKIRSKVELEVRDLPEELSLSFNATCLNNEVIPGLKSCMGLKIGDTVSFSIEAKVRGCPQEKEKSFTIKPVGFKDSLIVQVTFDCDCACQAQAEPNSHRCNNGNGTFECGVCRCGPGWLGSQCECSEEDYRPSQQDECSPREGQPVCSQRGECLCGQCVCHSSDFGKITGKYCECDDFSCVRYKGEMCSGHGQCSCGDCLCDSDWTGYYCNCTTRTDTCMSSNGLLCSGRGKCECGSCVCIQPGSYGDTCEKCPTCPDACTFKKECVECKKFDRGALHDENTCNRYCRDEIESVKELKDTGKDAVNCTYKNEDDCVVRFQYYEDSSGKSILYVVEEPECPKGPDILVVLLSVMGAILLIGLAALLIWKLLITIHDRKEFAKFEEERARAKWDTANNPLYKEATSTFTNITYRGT
Sequence (P06756 31-889 limits assumed): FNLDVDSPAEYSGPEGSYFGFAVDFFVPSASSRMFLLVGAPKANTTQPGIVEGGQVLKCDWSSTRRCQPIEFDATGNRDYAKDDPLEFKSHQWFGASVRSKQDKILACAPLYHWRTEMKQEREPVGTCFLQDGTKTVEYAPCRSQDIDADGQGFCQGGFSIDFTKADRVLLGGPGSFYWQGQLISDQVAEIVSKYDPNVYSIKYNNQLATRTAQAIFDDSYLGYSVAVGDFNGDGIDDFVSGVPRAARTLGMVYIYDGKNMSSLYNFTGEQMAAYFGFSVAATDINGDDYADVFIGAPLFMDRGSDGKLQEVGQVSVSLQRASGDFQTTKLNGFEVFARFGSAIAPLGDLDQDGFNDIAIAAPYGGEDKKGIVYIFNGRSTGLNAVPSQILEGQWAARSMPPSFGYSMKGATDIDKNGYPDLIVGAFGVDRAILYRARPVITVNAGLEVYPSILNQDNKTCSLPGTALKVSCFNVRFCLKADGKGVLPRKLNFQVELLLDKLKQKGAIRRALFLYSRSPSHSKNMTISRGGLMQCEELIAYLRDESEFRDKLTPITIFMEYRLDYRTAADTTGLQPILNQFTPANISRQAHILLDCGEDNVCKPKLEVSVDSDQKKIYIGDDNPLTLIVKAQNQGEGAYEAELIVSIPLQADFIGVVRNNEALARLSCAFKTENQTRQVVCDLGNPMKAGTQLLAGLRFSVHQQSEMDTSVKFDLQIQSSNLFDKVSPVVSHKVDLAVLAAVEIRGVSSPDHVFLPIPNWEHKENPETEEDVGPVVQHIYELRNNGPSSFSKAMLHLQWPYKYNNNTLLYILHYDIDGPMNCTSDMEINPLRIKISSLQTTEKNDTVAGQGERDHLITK
Sequence (P06756 891-1048 limits assumed): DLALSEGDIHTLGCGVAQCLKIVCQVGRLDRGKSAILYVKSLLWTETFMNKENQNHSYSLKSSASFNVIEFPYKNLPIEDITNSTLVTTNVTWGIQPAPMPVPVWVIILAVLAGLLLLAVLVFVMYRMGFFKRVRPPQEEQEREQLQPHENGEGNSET
assay overview: Displacement of vitronectin from Human integrin alphaV-beta3
pIC50 values, listed per item
Scale: pIC50 equals -log10([C]), with [C] in mol/L.

Worked examples follow.
| molecule | quantity | recorded value |
| --- | --- | --- |
| O=C(O)CC1CC(CNC(=O)CCNc2ccccn2)=CCc2ccccc21 (stereo not given) | pIC50 | 6.23 |
| O=C(O)CC1CC(CNC(=O)CCCNc2ccccn2)=CCc2ccccc21 (stereo not given) | pIC50 | 8.72 |
| CN(CCCC(=O)NCC1=CCc2ccccc2C(CC(=O)O)C1)c1ccccn1 (stereo not given) | pIC50 | 7.17 |
| O=C(O)CC1CC(CNC(=O)CCCCNc2ccccn2)=CCc2ccccc21 (stereo not given) | pIC50 | 8.57 |
| O=C(O)CC1CC(CNC(=O)CCCNc2nccs2)=CCc2ccccc21 (stereo not given) | pIC50 | 7.35 |

Ask | I am curious: what pIC50 value has been reported for O=C(O)CC1CC(CNC(=O)CCCNC2=NCCN2)=CCc2ccccc21 (stereo not given) ?
Reply | 9.52

Ask | What about this molecule? O=C(O)CC1CC(CNC(=O)CCNCc2ccccn2)=CCc2ccccc21 (stereo not given)
Reply | 6.07

Ask | Another molecule to check: O=C(O)CC1CC(CNC(=O)CCCNc2nc3ccccc3[nH]2)=CCc2ccccc21 (stereo not given)
Reply | 9.22

Ask | Try O=C(O)CC1CC(CNC(=O)CCCc2ccc3c(n2)NCCC3)=CCc2ccccc21 (stereo not given) next.
Reply | 9.52

Ask | Try this molecule next: O=C(O)CC1CC(CNC(=O)CCCNC2=NCCCN2)=CCc2ccccc21 (stereo not given)
Reply | 9.70

* * *

system: Integrin alpha-IIb/beta-3 (Homo sapiens, UniProt P05106+P08514)
Sequence (P05106 27-788 limits assumed): as the sequence (P05106 27-788 limits assumed) above
Sequence (P08514 32-887 limits assumed): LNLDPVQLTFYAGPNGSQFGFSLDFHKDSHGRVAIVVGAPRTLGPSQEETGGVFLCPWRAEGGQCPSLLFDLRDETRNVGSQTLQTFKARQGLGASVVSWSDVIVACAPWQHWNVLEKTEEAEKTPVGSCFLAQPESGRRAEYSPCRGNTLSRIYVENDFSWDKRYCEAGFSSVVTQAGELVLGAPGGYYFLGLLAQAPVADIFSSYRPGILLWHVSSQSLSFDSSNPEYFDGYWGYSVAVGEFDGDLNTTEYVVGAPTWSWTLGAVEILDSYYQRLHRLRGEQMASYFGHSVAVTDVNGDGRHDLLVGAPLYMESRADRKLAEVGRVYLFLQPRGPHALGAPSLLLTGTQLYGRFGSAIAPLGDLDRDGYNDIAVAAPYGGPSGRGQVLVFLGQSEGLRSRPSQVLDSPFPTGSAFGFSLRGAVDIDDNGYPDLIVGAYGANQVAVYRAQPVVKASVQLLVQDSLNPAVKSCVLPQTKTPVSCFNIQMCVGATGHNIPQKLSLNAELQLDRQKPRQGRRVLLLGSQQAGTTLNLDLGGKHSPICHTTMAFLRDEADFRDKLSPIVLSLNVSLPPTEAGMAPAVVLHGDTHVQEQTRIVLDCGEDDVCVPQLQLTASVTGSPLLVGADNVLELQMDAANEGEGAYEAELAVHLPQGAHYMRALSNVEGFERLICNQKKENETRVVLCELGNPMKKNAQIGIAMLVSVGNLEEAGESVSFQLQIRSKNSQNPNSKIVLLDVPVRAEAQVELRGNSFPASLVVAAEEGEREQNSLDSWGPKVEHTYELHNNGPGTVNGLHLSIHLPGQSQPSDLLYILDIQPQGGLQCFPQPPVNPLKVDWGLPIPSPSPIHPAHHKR
Sequence (P08514 891-1039 limits assumed): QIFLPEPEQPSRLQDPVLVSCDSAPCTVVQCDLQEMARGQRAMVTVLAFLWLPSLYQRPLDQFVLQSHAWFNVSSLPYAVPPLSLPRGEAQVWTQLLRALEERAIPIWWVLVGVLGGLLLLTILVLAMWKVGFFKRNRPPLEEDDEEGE
assay overview: Displacement of fibrinogen from Human integrin alphaIIb-beta3
pIC50: −log10 of the molar value.
We use 6 as the dividing line for pIC50: on or above the line is Satisfied, below is Not satisfied.

Ask | Hi, just wondering whether O=C(O)CC1CC(CNC(=O)CCCNc2nccs2)=CCc2ccccc21 (stereo not given) shows pIC50 of 6 or higher.
Reply | Not satisfied

Ask | Could you do the same for O=C(O)CC1CC(CNC(=O)CCCNc2ccccn2)=CCc2ccccc21 (stereo not given) , please?
Reply | Not satisfied

Ask | Again, but for O=C(O)CC1CC(CNC(=O)CCCNC2=NCCCN2)=CCc2ccccc21 (stereo not given)
Reply | Satisfied

Ask | // query: O=C(O)CC1CC(CNC(=O)CCNCc2ccccn2)=CCc2ccccc21 (stereo not given)
Reply | Satisfied

Ask | Now give it for O=C(O)CC1CC(CNC(=O)CCCNC2=NCCN2)=CCc2ccccc21 (stereo not given) too.
Reply | Satisfied

Ask | Repeat with O=C(O)CC1CC(CNC(=O)CCNc2ccccn2)=CCc2ccccc21 (stereo not given)
Reply | Not satisfied

* * *

We begin with a simple list: items and their reported Absorption.
Organism: Homo sapiens
assay overview: Oral absorption using Caco-2 cell monolayers.
Type: ADME
experimental context: in vitro

Here is how some molecules turned out for Absorption.
| molecule | Absorption |
| --- | --- |
| O=C(O)CC1CC(CNC(=O)CCNCc2ccccn2)=CCc2ccccc21 (stereo not given) | 23% |
| O=C(O)CC1CC(CNC(=O)CCCNc2ccccn2)=CCc2ccccc21 (stereo not given) | 95% |
| O=C(O)CC1CC(CNC(=O)CCCc2ccc3c(n2)NCCC3)=CCc2ccccc21 (stereo not given) | 92% |
| O=C(O)CC1CC(CNC(=O)CCCNc2nc3ccccc3[nH]2)=CCc2ccccc21 (stereo not given) | < 20% |

Ask | Suppose we examine the molecule O=C(O)CC1CC(CNC(=O)CCNc2ccccn2)=CCc2ccccc21 (stereo not given) ; what Absorption value has been reported?
Reply | 93%

Ask | Next up: O=C(O)CC1CC(CNC(=O)CCCNC2=NCCCN2)=CCc2ccccc21 (stereo not given)
Reply | < 20%
